Ref: ChEMBL document CHEMBL3593212

System tested: UniProt P43405
Attribute measured: IC50

Enquiry: Given the entry `N#Cc1ccc(N2CC[C@@H](Nc3c(C(N)=O)cnc4[nH]ccc34)[C@@H](F)C2)nc1` , what IC50 was observed with UniProt P43405?
Return: > 1000 nM

###

Experiment notes: Half life in cynomolgus monkey at 1 mg/kg, iv by LC/MS/MS method
Type: ADME, organism-based, Macaca fascicularis
Details: in vivo
Attribute measured: half-life (h)
Hi! Could you send only the number? It should be in h, unit omitted.

Enquiry: Dear colleague, I am looking for the recorded half-life of the following compound: `N#Cc1ccc(N2CC[C@@H](Nc3c(C(N)=O)cnc4[nH]ccc34)[C@@H](F)C2)nc1`
Return: 5.4
